- tgt: ZCCHC11 (UniProt Q5TAX3)
- Sequence (Q5TAX3 whole entry): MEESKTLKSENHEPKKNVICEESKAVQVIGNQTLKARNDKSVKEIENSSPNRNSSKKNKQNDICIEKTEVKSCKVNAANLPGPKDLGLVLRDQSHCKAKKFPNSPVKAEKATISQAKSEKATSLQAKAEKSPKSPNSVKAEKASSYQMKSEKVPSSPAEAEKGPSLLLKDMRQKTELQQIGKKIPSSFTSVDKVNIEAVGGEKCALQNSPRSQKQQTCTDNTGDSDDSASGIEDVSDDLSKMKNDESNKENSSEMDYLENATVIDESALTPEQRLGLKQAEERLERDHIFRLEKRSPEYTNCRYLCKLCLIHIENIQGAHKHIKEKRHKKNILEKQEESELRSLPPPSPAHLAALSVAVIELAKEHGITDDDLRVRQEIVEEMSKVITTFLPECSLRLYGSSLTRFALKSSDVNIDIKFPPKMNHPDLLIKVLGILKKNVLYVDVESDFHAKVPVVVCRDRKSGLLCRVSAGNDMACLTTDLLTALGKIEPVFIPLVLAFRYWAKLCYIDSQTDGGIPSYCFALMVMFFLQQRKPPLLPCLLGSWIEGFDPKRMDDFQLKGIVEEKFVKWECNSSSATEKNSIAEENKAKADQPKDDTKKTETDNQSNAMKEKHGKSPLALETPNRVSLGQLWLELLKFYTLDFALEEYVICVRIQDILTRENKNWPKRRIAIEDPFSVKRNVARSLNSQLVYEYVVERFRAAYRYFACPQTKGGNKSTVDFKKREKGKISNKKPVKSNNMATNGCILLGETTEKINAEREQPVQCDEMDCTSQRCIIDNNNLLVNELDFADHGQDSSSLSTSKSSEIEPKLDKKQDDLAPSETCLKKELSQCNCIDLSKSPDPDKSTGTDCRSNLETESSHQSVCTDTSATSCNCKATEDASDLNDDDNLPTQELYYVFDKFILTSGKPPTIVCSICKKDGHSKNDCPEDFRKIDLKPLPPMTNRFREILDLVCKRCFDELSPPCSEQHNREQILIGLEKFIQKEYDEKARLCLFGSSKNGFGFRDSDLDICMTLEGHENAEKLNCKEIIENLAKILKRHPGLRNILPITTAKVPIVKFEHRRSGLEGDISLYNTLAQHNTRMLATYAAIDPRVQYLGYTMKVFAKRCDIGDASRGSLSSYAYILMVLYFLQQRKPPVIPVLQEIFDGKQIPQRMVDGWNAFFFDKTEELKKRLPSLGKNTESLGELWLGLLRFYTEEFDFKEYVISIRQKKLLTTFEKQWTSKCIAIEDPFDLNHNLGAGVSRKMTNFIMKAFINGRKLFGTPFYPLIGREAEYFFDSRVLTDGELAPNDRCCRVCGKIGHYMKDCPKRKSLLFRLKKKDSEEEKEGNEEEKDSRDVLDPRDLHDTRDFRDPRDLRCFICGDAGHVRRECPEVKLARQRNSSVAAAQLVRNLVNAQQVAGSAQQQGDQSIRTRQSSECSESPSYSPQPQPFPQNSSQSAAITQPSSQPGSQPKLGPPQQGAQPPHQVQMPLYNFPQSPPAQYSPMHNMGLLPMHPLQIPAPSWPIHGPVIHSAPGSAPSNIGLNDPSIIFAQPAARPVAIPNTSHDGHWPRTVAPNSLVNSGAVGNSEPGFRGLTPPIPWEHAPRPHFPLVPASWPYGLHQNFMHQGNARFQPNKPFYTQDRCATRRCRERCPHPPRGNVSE
- test: Kd (EC50 corrected by depletion factor)
assay-metric: Kd (nM)
Write the value in nM as a bare number.

Report Kd for UAUUUAU please.
91.8

###

- tgt: MRPL22 (UniProt Q9NWU5)
- test: Kd (EC50 corrected by depletion factor)
assay-metric: Kd (nM)
Just the number please, in nM, no unit attached.

# get_value(readout= Kd, system= MRPL22 (UniProt Q9NWU5)) for CUGUCCU
67.4

###

- tgt: U2AF2 (UniProt P26368)
- Sequence (P26368 whole entry): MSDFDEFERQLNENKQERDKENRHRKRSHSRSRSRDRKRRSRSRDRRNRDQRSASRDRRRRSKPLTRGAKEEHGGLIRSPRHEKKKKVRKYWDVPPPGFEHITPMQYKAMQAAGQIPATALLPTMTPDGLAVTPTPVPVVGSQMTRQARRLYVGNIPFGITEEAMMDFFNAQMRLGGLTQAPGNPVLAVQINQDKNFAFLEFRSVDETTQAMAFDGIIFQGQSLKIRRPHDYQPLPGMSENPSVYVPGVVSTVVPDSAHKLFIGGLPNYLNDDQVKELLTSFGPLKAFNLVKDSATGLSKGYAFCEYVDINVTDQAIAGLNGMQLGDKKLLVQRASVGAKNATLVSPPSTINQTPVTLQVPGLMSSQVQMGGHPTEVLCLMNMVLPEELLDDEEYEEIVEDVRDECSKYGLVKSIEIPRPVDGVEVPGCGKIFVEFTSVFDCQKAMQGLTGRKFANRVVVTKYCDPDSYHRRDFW
- test: EC50 of free RNA motif oligo competing protein binding to immobilised probe
assay-metric: pEC50
Worth noting: pEC50 values are minus log10 of concentrations stated in mol/L.

// query pEC50 value for entry AAUAAA
5.99

###

- tgt: PLOD1 (UniProt Q02809)
- Sequence: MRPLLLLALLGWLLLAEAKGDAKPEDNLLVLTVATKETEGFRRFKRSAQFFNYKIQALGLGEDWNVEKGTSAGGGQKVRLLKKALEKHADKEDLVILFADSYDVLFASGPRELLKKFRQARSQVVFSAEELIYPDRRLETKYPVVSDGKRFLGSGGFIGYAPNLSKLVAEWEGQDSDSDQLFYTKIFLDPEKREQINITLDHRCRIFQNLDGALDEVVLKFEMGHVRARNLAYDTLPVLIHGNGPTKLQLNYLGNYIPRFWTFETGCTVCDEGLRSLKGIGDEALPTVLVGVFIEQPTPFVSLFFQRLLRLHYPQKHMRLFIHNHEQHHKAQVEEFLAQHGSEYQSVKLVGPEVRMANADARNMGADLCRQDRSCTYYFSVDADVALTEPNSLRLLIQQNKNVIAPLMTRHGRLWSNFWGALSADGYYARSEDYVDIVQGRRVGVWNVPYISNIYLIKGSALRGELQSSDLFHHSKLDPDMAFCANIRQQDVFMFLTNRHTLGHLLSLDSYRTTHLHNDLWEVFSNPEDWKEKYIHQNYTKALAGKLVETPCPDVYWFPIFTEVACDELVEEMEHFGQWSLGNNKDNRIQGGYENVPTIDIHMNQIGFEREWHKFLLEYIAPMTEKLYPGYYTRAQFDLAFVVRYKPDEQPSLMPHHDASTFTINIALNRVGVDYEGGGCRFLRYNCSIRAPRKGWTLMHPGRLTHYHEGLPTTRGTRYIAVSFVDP
- test: EC50 of free RNA motif oligo competing protein binding to immobilised probe
assay-metric: EC50 (µM)
Output spec: scalar in µM, unitless text.

Can you look up EC50 on PLOD1 (UniProt Q02809) for UAUUUAU ?
6.72

###

- tgt: PRPF31 (UniProt Q8WWY3)
- Sequence: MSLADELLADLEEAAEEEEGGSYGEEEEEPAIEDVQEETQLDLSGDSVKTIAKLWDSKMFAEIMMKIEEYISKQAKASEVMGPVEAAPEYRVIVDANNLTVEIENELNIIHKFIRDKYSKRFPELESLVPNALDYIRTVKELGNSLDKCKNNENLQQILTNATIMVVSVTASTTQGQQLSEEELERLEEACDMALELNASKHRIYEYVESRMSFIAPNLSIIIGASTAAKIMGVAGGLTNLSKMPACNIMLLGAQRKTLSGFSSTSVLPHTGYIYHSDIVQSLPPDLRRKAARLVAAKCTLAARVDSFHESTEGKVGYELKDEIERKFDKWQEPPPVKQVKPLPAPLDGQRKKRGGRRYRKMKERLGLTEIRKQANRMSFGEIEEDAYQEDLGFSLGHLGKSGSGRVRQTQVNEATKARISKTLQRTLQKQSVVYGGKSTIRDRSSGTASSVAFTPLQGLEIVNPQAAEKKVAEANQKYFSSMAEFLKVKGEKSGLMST
- test: Kd (EC50 corrected by depletion factor)
assay-metric: Kd (nM)
Your answer should be a plain number; it is taken to be in nM.

What reported Kd corresponds to UAUUUAU on PRPF31 (UniProt Q8WWY3)?
2850
